Ref: patent US20150135829A1

Test: Density and magnetic susceptibility of paramagnetic ionic liquids from MagLev levitation height of density standard beads
Type: physicochemical
Conditions: range of densities that can be levitated in MagLev
As shown below, each of these compounds has a reported Accessible Density Range value.

>>> reported_result("CCCC[n+]1ccn(C)c1C.CCCC[n+]1ccn(C)c1C.CCCC[n+]1ccn(C)c1C.[Cl][Dy-3]([Cl])([Cl])([Cl])([Cl])[Cl] [[BDMIM]3 [DyCl6]]")
"1.05 to 1.41 g/mL"
>>> reported_result("CCCC[n+]1ccn(C)c1.CCCC[n+]1ccn(C)c1.[Cl][Mn-2]([Cl])([Cl])[Cl] [[BMIM]2 [MnCl4]]")
"1.09 to 1.37 g/mL"
>>> reported_result("CCCC[n+]1ccn(C)c1.CCCC[n+]1ccn(C)c1.CCCC[n+]1ccn(C)c1.[Cl][Ho-3]([Cl])([Cl])([Cl])([Cl])[Cl] [[BMIM]3 [HoCl6]]")
"1.30 to 1.35 g/mL"
>>> reported_result("COC(=O)[C@H](C)[NH3+].COC(=O)[C@H](C)[NH3+].[Cl][Mn-2]([Cl])([Cl])[Cl] [[AlaC1]2 [MnCl4]]")
"0.63 to 1.86 g/mL"
>>> reported_result("CCCCCCCC[N+](C)(CCCCCCCC)CCCCCCCC.CCCCCCCC[N+](C)(CCCCCCCC)CCCCCCCC.CCCCCCCC[N+](C)(CCCCCCCC)CCCCCCCC.[Cl][Ho-3]([Cl])([Cl])([Cl])([Cl])[Cl] [[Aliq]3 [HoCl6]]")
"0.85 to 1.05 g/mL"

Which Accessible Density Range value belongs to CCCCn1cc[n+](C)c1.CCCCn1cc[n+](C)c1.CCCCn1cc[n+](C)c1.[Cl][Dy-3]([Cl])([Cl])([Cl])([Cl])[Cl] [[BMIM]3 [DyCl6]] ?
0.72 to 2.01 g/mL

----------
# χ (magnetic susceptibility) annotations
Experiment: Density and magnetic susceptibility of paramagnetic ionic liquids from MagLev levitation height of density standard beads
Assay type: physicochemical
Details: calculated from levitation height vs density of standard beads (Mirica et al. JACS 2009 method)
Procedure: The density of a diamagnetic object was determined, from its levitation height, by suspending the object in a container filled with paramagnetic ionic liquid and placed the container between two NdFeB magnets oriented with like poles facing each other (see FIG. 5). Before using the paramagnetic ionic liquids as liquids for density based measurement using Maglev, the density and magnetic susceptibility of each paramagnetic ionic liquid was first determined (examples shown in FIG. 6). […]

Field: example entries. Status: answers known.
>>> reported_result("CCCCCCCC[N+](C)(CCCCCCCC)CCCCCCCC.CCCCCCCC[N+](C)(CCCCCCCC)CCCCCCCC.CCCCCCCC[N+](C)(CCCCCCCC)CCCCCCCC.[Cl][Ho-3]([Cl])([Cl])([Cl])([Cl])[Cl] [[Aliq]3 [HoCl6]]")
"1.94 ×10^−4"
>>> reported_result("CCCCCCCC[N+](C)(CCCCCCCC)CCCCCCCC.CCCCCCCC[N+](C)(CCCCCCCC)CCCCCCCC.[Cl][Mn-2]([Cl])([Cl])[Cl] [[Aliq]2 [MnCl4]]")
"1.85 ×10^−4"
>>> reported_result("CCCCCCCC[N+](C)(CCCCCCCC)CCCCCCCC.CCCCCCCC[N+](C)(CCCCCCCC)CCCCCCCC.CCCCCCCC[N+](C)(CCCCCCCC)CCCCCCCC.[Cl][Gd-3]([Cl])([Cl])([Cl])([Cl])[Cl] [[Aliq]3 [GdCl6]]")
"0.55 ×10^−4"
>>> reported_result("CCCC[n+]1ccn(C)c1.CCCC[n+]1ccn(C)c1.[Cl][Mn-2]([Cl])([Cl])[Cl] [[BMIM]2 [MnCl4]]")
"2.75 ×10^−4"
>>> reported_result("COC(=O)[C@H](C)[NH3+].COC(=O)[C@H](C)[NH3+].[Cl][Mn-2]([Cl])([Cl])[Cl] [[AlaC1]2 [MnCl4]]")
"11.80 ×10^−4"
>>> reported_result("COC(=O)[C@H](C)[NH3+].COC(=O)[C@H](C)[NH3+].COC(=O)[C@H](C)[NH3+].[Cl][Dy-3]([Cl])([Cl])([Cl])([Cl])[Cl] [[AlaC1]3 [DyCl6]]")
"9.58 ×10^−4"
>>> reported_result("CCCCn1cc[n+](C)c1.[Cl][Fe-]([Cl])([Cl])[Cl] [[BMIM] [FeCl4]]")
"8.28 ×10^−4"
>>> reported_result("COC(=O)[C@H](C)[NH3+].[Cl][Fe-]([Cl])([Cl])[Cl] [[AlaC1] [FeCl4]]")
"6.62 ×10^−4"

Shifting focus to the molecule that follows.
What χ (magnetic susceptibility) value was documented for this molecule, CCCCCCCC[N+](C)(CCCCCCCC)CCCCCCCC.CCCCCCCC[N+](C)(CCCCCCCC)CCCCCCCC.CCCCCCCC[N+](C)(CCCCCCCC)CCCCCCCC.[Br][Ho-3]([Br])([Br])([Br])([Br])[Br] [[Aliq]3 [HoBr6]] ?
1.37 ×10^−4
